Listing of entries alongside the reported mortality (%) (500 ppm) Aphis.
- System: Aphis craccivoral
- test-method-notes: Insecticidal activity against Aphis craccivoral by immersing (dipping aphids on bean sprout)
- Assay type: in vivo
- assay-setup: 500 ppm; immersing (dipped 5 seconds); counted after 24 hours; 23° C.

compound | tgt | result-value
CC(C)CCOC1CCC([N+](=O)[O-])=C2N(Cc3cnc(Cl)s3)CCN21 (racemic) | Aphis craccivoral | 56%

input: Recorded mortality (%) (500 ppm) Aphis for O=C(OC1CCC([N+](=O)[O-])=C2N(Cc3ccc(Cl)nc3)CCN21)c1ccccc1F (stereo not shown) , please?
output: 0%

input: Ok, now CCCOC1CCC([N+](=O)[O-])=C2N(Cc3cnc(Cl)s3)CCN21 (racemic)
output: 100%

input: Ok, now O=[N+]([O-])C1=C2N(CC3CCOC3)CCN2C(O)CC1 (stereo not shown)
output: 56%

====

- Test system: Nilaparvata lugens
- test-method-notes: Insecticidal activity against Nilaparvata lugens (planthopper) by spraying
- Assay type: in vivo
- assay-setup: 500 ppm, spraying 2 ml per tumbler, killed counted after 24 hours
Listing of entries alongside the reported mortality (%) (500 ppm) Nilaparvata-lugens.
Field: numeric (%). Do not append units.

The examples below pair each entry with its known result.
compound | tgt | result-value
CCCCCN=C1CCC([N+](=O)[O-])=C2N(Cc3ccc(Cl)nc3)CCN12 | Nilaparvata lugens | 78
CCOCCN=C1CCC([N+](=O)[O-])=C2N(Cc3ccc(Cl)nc3)CCN12 | Nilaparvata lugens | 78
CCSC1CCC([N+](=O)[O-])=C2N(Cc3cnc(Cl)s3)CCN21 (centres unmarked) | Nilaparvata lugens | 100

input: Recorded mortality (%) (500 ppm) Nilaparvata-lugens for CCCCN=C1CCC([N+](=O)[O-])=C2N(Cc3cnc(Cl)s3)CCCN12 , please?
output: 66

input: Ok, now CC(C)SC1CCC([N+](=O)[O-])=C2N(Cc3cnc(Cl)s3)CCN21 (centres unmarked)
output: 98

input: Ok, now COCCN=C1CCC([N+](=O)[O-])=C2N(Cc3ccc(Cl)nc3)CCN12
output: 36

input: Ok, now CN=C1CCC([N+](=O)[O-])=C2N(Cc3cnc(Cl)s3)CCCN12
output: 67

input: Ok, now N=C1CCC([N+](=O)[O-])=C2N(Cc3ccc(Cl)nc3)CCN12
output: 67

====

Listing of entries alongside the reported mortality (%) (500 ppm) Nilaparvata lugens.
- System: Nilaparvata lugens
- test-method-notes: Insecticidal activity against Nilaparvata lugens (planthopper) by spraying
- Type: in vivo
- assay-setup: 500 ppm; spraying 2 ml; counted after 24 hours
Field: numeric (%). Do not append units.

input: Recorded mortality (%) (500 ppm) Nilaparvata lugens for O=[N+]([O-])C1=C2N(Cc3cnc(Cl)s3)CCCN2C(OCC(F)(F)F)CC1 (stereo not drawn) , please?
output: 100

====

- Test system: Aphis craccivoral
- test-method-notes: Insecticidal activity against Aphis craccivoral by immersing (dipping aphids on bean sprout)
- Assay type: in vivo
- assay-setup: 500 ppm; immersing (dipped 5 seconds); counted after 24 hours; 23° C.
parameter: mortality (%) (500 ppm) Aphis
Field: numeric (%). Do not append units.

The examples below pair each entry with its known result.
molecule | unit-info | mortality (%) (500 ppm) Aphis
CC(C)(C)COC1CCC([N+](=O)[O-])=C2N(Cc3cnc(Cl)s3)CCN21 (racemic) | % | 24
O=C(OC1CCC([N+](=O)[O-])=C2N(Cc3ccc(Cl)nc3)CCN21)c1cc(F)c(F)cc1F (stereo not drawn) | % | 45
CC(C)CSC1CCC([N+](=O)[O-])=C2N(Cc3ccc(Cl)nc3)CCN21 (stereo not drawn) | % | 67
O=[N+]([O-])C1=C2N(Cc3cnc(Cl)s3)CCN2C(OCCCl)CC1 (racemic) | % | 26

input: Recorded mortality (%) (500 ppm) Aphis for CC(C)SC1CCC([N+](=O)[O-])=C2N(Cc3ccc(Cl)nc3)CCN21 (stereo not drawn) , please?
output: 89

input: Ok, now O=[N+]([O-])C1=C2N(Cc3ccc(Cl)nc3)CCN2C(Oc2ccccc2)CC1 (stereo not drawn)
output: 38

input: Ok, now CC(C)(C)OC1CCC([N+](=O)[O-])=C2N(CC3CCOC3)CCN21 (stereo not drawn)
output: 100

====

- Tested on: Nilaparvata lugens
- test-method-notes: Insecticidal activity against Nilaparvata lugens (planthopper) by spraying
- Assay type: in vivo
- assay-setup: 500 ppm, spraying 2 ml per tumbler, killed counted after 24 hours
Range-based classes on measured mortality (%) (500 ppm) Nilaparvata-lugens: bottom = under 60%, middle = from 60% up to 90%, top = 90% and over

Reference set (5 entries):
compound | group
CC(C)(C)CN=C1CCC([N+](=O)[O-])=C2N(Cc3ccc(Cl)nc3)CCCN12 [Compound 211] | bottom
CC(C)CSC1CCC([N+](=O)[O-])=C2N(Cc3cnc(Cl)s3)CCN21 (stereo not drawn) [Compound 179] | bottom
CC(C)N=C1CCC([N+](=O)[O-])=C2N(Cc3cnc(Cl)s3)CCN12 [Compound 219] | bottom
O=[N+]([O-])C1=C2N(Cc3cnc(Cl)s3)CCN2C(=NCCCl)CC1 [Compound 215] | top
CN=C1CCC([N+](=O)[O-])=C2N(Cc3ccc(Cl)nc3)CCN12 [Compound 189] | top

input: Which of the defined bands does the recorded mortality (%) (500 ppm) Nilaparvata-lugens of CCCCSC1CCC([N+](=O)[O-])=C2N(Cc3cnc(Cl)s3)CCN21 (stereo not drawn) [Compound 178] sit within?
output: bottom

input: Ok, now CN=C1CCC([N+](=O)[O-])=C2N(Cc3cnc(Cl)s3)CCN12 [Compound 213]
output: middle

input: Ok, now CCCC(C)N=C1CCC([N+](=O)[O-])=C2N(Cc3ccc(Cl)nc3)CCCN12 (stereo not drawn) [Compound 210]
output: middle

input: Ok, now CCCSC1CCC([N+](=O)[O-])=C2N(Cc3cnc(Cl)s3)CCN21 (stereo not drawn) [Compound 175]
output: top

input: Ok, now CCCCN=C1CCC([N+](=O)[O-])=C2N(Cc3cnc(Cl)s3)CCN12 [Compound 216]
output: top

input: Ok, now O=C(OC1CCC([N+](=O)[O-])=C2N(Cc3cnc(Cl)s3)CCN21)c1cc(F)c(F)cc1F (stereo not drawn) [Compound 166]
output: bottom

input: Ok, now CCCCCN=C1CCC([N+](=O)[O-])=C2N(Cc3cnc(Cl)s3)CCCN12 [Compound 226]
output: bottom

input: Ok, now CCCCN=C1CCC([N+](=O)[O-])=C2N(Cc3ccc(Cl)nc3)CCN12 [Compound 194]
output: bottom

====

Listing of entries alongside the reported mortality (%) (500 ppm) Nilaparvata lugens.
- Test system: Nilaparvata lugens
- test-method-notes: Insecticidal activity against Nilaparvata lugens (planthopper) by spraying
- Assay type: in vivo
- assay-setup: 500 ppm; spraying 2 ml; counted after 24 hours
Field: numeric (%). Do not append units.

The examples below pair each entry with its known result.
compound | tgt | result-value
CSC1CCC([N+](=O)[O-])=C2N(Cc3ccc(Cl)nc3)CCN21 (stereo not drawn) | Nilaparvata lugens | 100
CC(C)CCOC1CCC([N+](=O)[O-])=C2N(Cc3cnc(Cl)s3)CCN21 (racemic) | Nilaparvata lugens | 64

input: Recorded mortality (%) (500 ppm) Nilaparvata lugens for O=[N+]([O-])C1=C2N(Cc3cnc(Cl)s3)CCN2C(O)CC1 (racemic) , please?
output: 100

====

- Test system: Nilaparvata lugens
- test-method-notes: Insecticidal activity against Nilaparvata lugens (planthopper) by spraying
- Type: in vivo
- assay-setup: 500 ppm; spraying 2 ml; counted after 24 hours
parameter: mortality (%) (500 ppm) Nilaparvata lugens
Field: numeric (%). Do not append units.

The examples below pair each entry with its known result.
compound | result-value
COCCSC1CCC([N+](=O)[O-])=C2N(Cc3ccc(Cl)nc3)CCN21 (stereo not shown) | 89
CC(C)(C)SC1CCC([N+](=O)[O-])=C2N(Cc3ccc(Cl)nc3)CCN21 (stereo not shown) | 88
CCC(C)SC1CCC([N+](=O)[O-])=C2N(Cc3ccc(Cl)nc3)CCN21 (stereo not shown) [Compound 141] | 89

input: Recorded mortality (%) (500 ppm) Nilaparvata lugens for CCOC1CCC([N+](=O)[O-])=C2N(CC3CCOC3)CCCN21 (stereo not shown) , please?
output: 90

====

Listing of entries alongside the reported mortality (%) (500 ppm) Nilaparvata-lugens.
- Test system: Nilaparvata lugens
- test-method-notes: Insecticidal activity against Nilaparvata lugens (planthopper) by spraying
- Type: in vivo
- assay-setup: 500 ppm, spraying 2 ml per tumbler, killed counted after 24 hours
Field: numeric (%). Do not append units.

The examples below pair each entry with its known result.
compound | result-value
CC(C)CCN=C1CCC([N+](=O)[O-])=C2N(Cc3ccc(Cl)nc3)CCN12 | 25
CCCN=C1CCC([N+](=O)[O-])=C2N(Cc3ccc(Cl)nc3)CCCN12 | 100

input: Recorded mortality (%) (500 ppm) Nilaparvata-lugens for CC(C)(C)CN=C1CCC([N+](=O)[O-])=C2N(Cc3ccc(Cl)nc3)CCN12 , please?
output: 89

input: Ok, now O=C(OC1CCC([N+](=O)[O-])=C2N(Cc3cnc(Cl)s3)CCN21)c1cc(F)c(F)c([N+](=O)[O-])c1F (stereo not drawn)
output: 13

input: Ok, now CCCC(C)N=C1CCC([N+](=O)[O-])=C2N(Cc3ccc(Cl)nc3)CCN12 (stereo not drawn)
output: 56

input: Ok, now CN=C1CCC([N+](=O)[O-])=C2N(Cc3ccc(Cl)nc3)CCCN12
output: 98

input: Ok, now CCCN=C1CCC([N+](=O)[O-])=C2N(Cc3cnc(Cl)s3)CCN12
output: 100

input: Ok, now O=[N+]([O-])C1=C2N(Cc3cnc(Cl)s3)CCN2C(SCC(F)(F)F)CC1 (stereo not drawn)
output: 100

input: Ok, now CC(C)N=C1CCC([N+](=O)[O-])=C2N(Cc3ccc(Cl)nc3)CCCN12
output: 98

input: Ok, now CC(C)(C)SC1CCC([N+](=O)[O-])=C2N(Cc3cnc(Cl)s3)CCN21 (stereo not drawn)
output: 78

input: Ok, now O=C(OC1CCC([N+](=O)[O-])=C2N(Cc3cnc(Cl)s3)CCN21)c1ccc(Cl)c(Cl)c1 (stereo not drawn)
output: 0
